# IC50 values compiled below
subjectOfTest: Inward rectifier potassium channel 2 (Mus musculus) (UniProt P35561)
Sequence (P35561 whole entry, looked up): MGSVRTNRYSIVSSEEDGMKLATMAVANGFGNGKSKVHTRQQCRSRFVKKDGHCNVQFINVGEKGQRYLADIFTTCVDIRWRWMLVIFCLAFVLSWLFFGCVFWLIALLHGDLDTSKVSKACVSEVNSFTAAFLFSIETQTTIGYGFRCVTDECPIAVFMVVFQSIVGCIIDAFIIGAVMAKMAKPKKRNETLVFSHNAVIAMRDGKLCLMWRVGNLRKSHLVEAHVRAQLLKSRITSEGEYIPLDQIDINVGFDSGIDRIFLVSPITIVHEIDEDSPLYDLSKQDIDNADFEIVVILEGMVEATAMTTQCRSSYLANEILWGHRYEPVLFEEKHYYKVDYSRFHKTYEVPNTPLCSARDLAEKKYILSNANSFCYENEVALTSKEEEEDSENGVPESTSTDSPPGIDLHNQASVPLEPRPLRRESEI
experimentSummary: mouse Kir2.1 channel blockers, dose response, orthogonal assay for Kir2.1 inhibitor project, cell-based, automated electrophysiology, IonWorks patch clamp (AID 2581)
cond: Kir2.1 cell line, IonWorks patch clamp current at -100 mV

Record excerpt, results attached:
{"columns": ["molecule", "observedMeasurement"],
 "data": [
  ["COc1ccc(CNCc2ccc(C(C)(C)C)cc2)cc1", "14 µM"],
  ["COc1ccc(CNC2CCCc3ccccc32)cc1 (stereo unspecified)", "9.05 µM"],
  ["COc1ccc(CNCc2ccc(OC)c3ccccc23)cc1OC", "23.5 µM"],
  ["COc1ccc(CNCc2cccc(Cl)c2)cc1", "8.99 µM"],
  ["COc1ccc(CNCc2ccc(OC)c(Cl)c2)cc1", "5.11 µM"]
]}

We next turn to a different molecule, shown below.
Q: Recorded IC50 for COc1ccc(CNCc2ccc(OC(F)(F)F)cc2)cc1 , please?
Ans: 24.1 µM
